Cited source for all entries: patent US8557959B2

So I've got a bunch of substances here, and I need their IC50 values.
molecular target: HLA-DR2b molecules (Homo sapiens, UniProt P01903+P01911); construct: made in house; host or cells: L cells co-transfected with HLA-DRA and HLA-DRB1*1501; test: competitive ELISA (dissociation-enhanced lanthanide fluoroimmunoassay) with biotinylated CLIP 97-120 as tracer on purified DR2b molecules; type: binding; conditions: acetylated nonapeptide amides; 48 hours at 37° C.; 50 nM DR2b, 50 nM biotinylated CLIP 97-120; read-out: IC50 for binding to HLA-DR2b molecules

# batch: return IC50 for each of the 3 substances below
1. Ac-MIYWYNSWL-NH2 [HuPb31, MIYWYNSWL]
2. Ac-LILWYSSWL-NH2 [HuPb24, LILWYSSWL]
3. Ac-WGLPEHLER-NH2 [HuPb11, WGLPEHLER]

[A]
1: < 1 nM; 2: 2 nM; 3: > 100000 nM

# batch: return IC50 for each of the 3 substances below
1. Ac-MIYWYSSWI-NH2 [HuPb21, MIYWYSSWI]
2. Ac-GPPERLEFR-NH2 [HuPb19, GPPERLEFR]
3. Ac-MIYWYSNWL-NH2 [HuPb30, MIYWYSNWL]

[A]
1 nM
> 100000 nM
< 1 nM

----------
target: HLA-DR2b molecules (Homo sapiens, UniProt P01903+P01911); construct: made in house; host or cells: L cells co-transfected with HLA-DRA and HLA-DRB1*1501; assay: competitive ELISA (dissociation-enhanced lanthanide fluoroimmunoassay) with biotinylated CLIP 97-120 as tracer on purified DR2b molecules; format: binding
assay_metric: IC50

[Q] Tell me the measured IC50 of Ac-KGESGFRDR-NH2 [HuPb17, KGESGFRDR] , please.
[A] > 100 µM

----------
So I've got a bunch of substances here, and I need their pIC50 values.
target: HLA-DR2b molecules (Homo sapiens, UniProt P01903+P01911); construct: made in house; host or cells: L cells co-transfected with HLA-DRA and HLA-DRB1*1501; assay: competitive ELISA (dissociation-enhanced lanthanide fluoroimmunoassay) with biotinylated CLIP 97-120 as tracer on purified DR2b molecules; assay type: binding; conditions: acetylated nonapeptide amides; 48 hours at 37° C.; 50 nM DR2b, 50 nM biotinylated CLIP 97-120; read-out: IC50 for binding to HLA-DR2b molecules
Numbers only, as −log10 of the molar value.

Worked examples, 3 substances total:
Ac-MIYWYSSWL-NH2 [HuPb20, MIYWYSSWL] = 9.00
Ac-LILWYSSWP-NH2 [HuPb26, LILWYSSWP] = 9.00
Ac-MIYWYSSWD-NH2 [HuPb33, MIYWYSSWD] = 9.00

# batch: return pIC50 for each of the 2 substances below
1. Ac-FILIYSNLF-NH2 [HuPb29, FILIYSNLF]
2. Ac-LIYWYSSWL-NH2 [HuPb22, LIYWYSSWL]

[A]
[8.70, 8.70]
